Listed below: Tm values for each entry.
# Test Details: melting temperature; melt of duplexes
# Details: sodium 0.0675 M; strand 1 µM
Value expressed in °C; do not type the unit.

Known results for substances:
Notebook: CGACGTGCACCATGTGCTG+CAGCACATTGCGCACGTCG ((((((((.(.((((((((+)))))))).).)))))))) , Tm read as 46.9

Notebook: CGACGTGCCAGATGTGCTG+CAGCACATGCGGCACGTCG (((((((((..((((((((+))))))))..))))))))) , Tm read as 54.6

Notebook: CGACGTGCCGTATGTGCTG+CAGCACATGATGCACGTCG ((((((((...((((((((+))))))))...)))))))) , Tm read as 49.2

Others:
Notebook: CGACGTGCCCTATGTGCTG+CAGCACATGCTGCACGTCG ((((((((...((((((((+))))))))...)))))))) , Tm read as 45.4

Notebook: CGACGTGCTTGATGTGCTG+CAGCACATATAGCACGTCG (((((((((..((((((((+))))))))..))))))))) , Tm read as 54

Notebook: CGACGTGCAGTATGTGCTG+CAGCACATGGCGCACGTCG ((((((((...((((((((+))))))))...)))))))) , Tm read as 50.2

Notebook: CGACGTGCACGATGTGCTG+CAGCACATGTAGCACGTCG ((((((((...((((((((+))))))))...)))))))) , Tm read as 48.7

Notebook: CGACGTGCGCTATGTGCTG+CAGCACATGTGGCACGTCG ((((((((...((((((((+))))))))...)))))))) , Tm read as 50.8

Notebook: CGACGTGCTCGATGTGCTG+CAGCACATGTGGCACGTCG ((((((((...((((((((+))))))))...)))))))) , Tm read as 50.7

Notebook: CGACGTGCTAGATGTGCTG+CAGCACATAGAGCACGTCG (((((((((..((((((((+))))))))..))))))))) , Tm read as 53.8

Notebook: CGACGTGCTACATGTGCTG+CAGCACATACGGCACGTCG ((((((((...((((((((+))))))))...)))))))) , Tm read as 48.8

Notebook: CGACGTGCCGGATGTGCTG+CAGCACATGCCGCACGTCG ((((((((.(.((((((((+)))))))).).)))))))) , Tm read as 53.4

Notebook: CGACGTGCACCATGTGCTG+CAGCACATGAAGCACGTCG ((((((((..(((((((((+)))))))))..)))))))) , Tm read as 51

Notebook: CGACGTGCTTGATGTGCTG+CAGCACATCAAGCACGTCG (((((((((((((((((((+))))))))))))))))))) , Tm read as 64.9

Notebook: CGACGTGCACCATGTGCTG+CAGCACATACTGCACGTCG (((((((((..((((((((+))))))))..))))))))) , Tm read as 44.9

* * *

Listed below: Tm values for each entry.
# Test Details: melting temperature; melt of duplexes
# Details: sodium 0.0675 M; strand 1 µM
Value expressed in °C; do not type the unit.

Known results for substances:
Notebook: CGACGTGCTACATGTGCTG+CAGCACATTCCGCACGTCG ((((((((...((((((((+))))))))...)))))))) , Tm read as 47.2

Notebook: CGACGTGCTACATGTGCTG+CAGCACATTAGGCACGTCG ((((((((...((((((((+))))))))...)))))))) , Tm read as 50.5

Others:
Notebook: CGACGTGCGCAATGTGCTG+CAGCACATCAAGCACGTCG ((((((((...((((((((+))))))))...)))))))) , Tm read as 53.1

Notebook: CGACGTGCGTGATGTGCTG+CAGCACATCCCGCACGTCG (((((((((.(((((((((+))))))))).))))))))) , Tm read as 59.4

Notebook: CGACGTGCAAGATGTGCTG+CAGCACATTCAGCACGTCG ((((((((...((((((((+))))))))...)))))))) , Tm read as 50.7

Notebook: CGACGTGCCCGATGTGCTG+CAGCACATACAGCACGTCG ((((((((...((((((((+))))))))...)))))))) , Tm read as 49.1

Notebook: CGACGTGCCATATGTGCTG+CAGCACATGTCGCACGTCG ((((((((.(.((((((((+)))))))).).)))))))) , Tm read as 50.5

* * *

# Test Details: melting temperature; melt of duplexes
# Details: sodium 0.0675 M; strand 1 µM
Reported Property: Tm (°C)
Value expressed in °C; do not type the unit.

Known results for substances:
Notebook: CGACGTGCGCCATGTGCTG+CAGCACATGTGGCACGTCG ((((((((..(((((((((+)))))))))..)))))))) , Tm read as 54.1

Notebook: CGACGTGCATGATGTGCTG+CAGCACATCCAGCACGTCG ((((((((..(((((((((+)))))))))..)))))))) , Tm read as 53.6

Notebook: CGACGTGCCCGATGTGCTG+CAGCACATAACGCACGTCG ((((((((...((((((((+))))))))...)))))))) , Tm read as 47.6

Notebook: CGACGTGCCCCATGTGCTG+CAGCACATCGAGCACGTCG ((((((((.(.((((((((+)))))))).).)))))))) , Tm read as 48.7

Notebook: CGACGTGCTTAATGTGCTG+CAGCACATCAGGCACGTCG ((((((((.(.((((((((+)))))))).).)))))))) , Tm read as 50.8

Notebook: CGACGTGCAATATGTGCTG+CAGCACATCCTGCACGTCG (((((((((..((((((((+))))))))..))))))))) , Tm read as 49.6

Now consider a different substance.
Notebook: CGACGTGCGACATGTGCTG+CAGCACATATTGCACGTCG ((((((((.(.((((((((+)))))))).).)))))))) , Tm read as 51.5

* * *

# Test Details: melting temperature; melt of duplexes
# Details: sodium 0.0675 M; strand 1 µM
Note to self: use 1.0 only for Tm readings below 50 °C; a reading exactly at 50 °C still gets 0.0.

input: For this substance, is Tm lower than 50 °C? CGACGTGCAGAATGTGCTG+CAGCACATTTCGCACGTCG ((((((((..(((((((((+)))))))))..))))))))
output: 0.0

Now for another entry.
input: For this substance, is Tm lower than 50 °C? CGACGTGCACGATGTGCTG+CAGCACATATGGCACGTCG ((((((((...((((((((+))))))))...))))))))
output: 1.0

* * *

# Test Details: melting temperature; UV melt of duplexes
# Details: sodium 1.02 M; strand 2 µM
Listed below: Tm values for each entry.
Value expressed in °C; do not type the unit.

Known results for substances:
Notebook: AACCTGCAACATGGAGTTTTTGTCTCATGC+GCATGAGACAAAAACTCCATGTTGCAGGTT ((((((((((((((((((((((((((((((+)))))))))))))))))))))))))))))) , Tm read as 78.7

Notebook: GTCCACGCCCGGTGCGACGG+CCGTCGCACCGGGCGTGGAC ((((((((((((((((((((+)))))))))))))))))))) , Tm read as 81.1

Notebook: CGCGCCACGTGTGATCTACAGCCGTTCGGC+GCCGAACGGCTGTAGATCACACGTGGCGCG ((((((((((((((((((((((((((((((+)))))))))))))))))))))))))))))) , Tm read as 84.5

Notebook: CGCCGCTGCCGACTGGAGGAGCGCGGGACG+CGTCCCGCGCTCCTCCAGTCGGCAGCGGCG ((((((((((((((((((((((((((((((+)))))))))))))))))))))))))))))) , Tm read as 88.6

Notebook: GATATAGCAAAATTCTAAGTTAATA+TATTAACTTAGAATTTTGCTATATC (((((((((((((((((((((((((+))))))))))))))))))))))))) , Tm read as 66.1

Others:
Notebook: ACAGCGAATGGACCTACGTGGCCTT+AAGGCCACGTAGGTCCATTCGCTGT (((((((((((((((((((((((((+))))))))))))))))))))))))) , Tm read as 81

Notebook: TTCAAGTTAAACATTCTATC+GATAGAATGTTTAACTTGAA ((((((((((((((((((((+)))))))))))))))))))) , Tm read as 61.5

Notebook: ACGGGTCCCCGCACCGCACCGCCAG+CTGGCGGTGCGGTGCGGGGACCCGT (((((((((((((((((((((((((+))))))))))))))))))))))))) , Tm read as 88.3

Notebook: CTCAACTTGCGGTAAATAAATCGCTTAATC+GATTAAGCGATTTATTTACCGCAAGTTGAG ((((((((((((((((((((((((((((((+)))))))))))))))))))))))))))))) , Tm read as 75.5

Notebook: AAGGCGAGTCAGGCTCAGTG+CACTGAGCCTGACTCGCCTT ((((((((((((((((((((+)))))))))))))))))))) , Tm read as 76.3

Notebook: AAAGTACATCAACATAGAGAATTGCATTTC+GAAATGCAATTCTCTATGTTGATGTACTTT ((((((((((((((((((((((((((((((+)))))))))))))))))))))))))))))) , Tm read as 73.2

Notebook: ATAACTTTACGTGTGTGACCTATTA+TAATAGGTCACACACGTAAAGTTAT (((((((((((((((((((((((((+))))))))))))))))))))))))) , Tm read as 71.8
